Measured pKi accompanies every entry in the list below.
Biological target: Sigma non-opioid intracellular receptor 1 (Cavia porcellus)
Sequence (Q60492 whole entry): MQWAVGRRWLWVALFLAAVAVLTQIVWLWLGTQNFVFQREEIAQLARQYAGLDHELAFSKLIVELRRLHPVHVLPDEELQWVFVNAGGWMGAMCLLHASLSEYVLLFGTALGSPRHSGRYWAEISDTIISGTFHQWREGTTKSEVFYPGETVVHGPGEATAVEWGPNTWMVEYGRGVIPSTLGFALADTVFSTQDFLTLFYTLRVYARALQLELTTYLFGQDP
Assay: Displacement of [3H]-(+)-pentazocine from sigma-1 receptor in guinea pig brain cortex membranes incubated for 120 mins measured for 5 mins by scintillation counting method
pKi: −log10 of the molar value.

[
  {
    "compound": "Oc1ccc2c(c1)CCC(NCCCCc1ccccc1)CC2 (centres undefined)",
    "pKi": 6.68
  },
  {
    "compound": "OCc1ccc2c(c1)CCC(NCCCCc1ccccc1)CC2 (centres undefined)",
    "pKi": 7.39
  },
  {
    "compound": "Oc1ccc2c(c1)CCC(NCCCc1ccccc1)CC2 (centres undefined)",
    "pKi": 6.91
  },
  {
    "compound": "OCc1ccc2c(c1)CCC(NCCCc1ccccc1)CC2 (centres undefined)",
    "pKi": 6.25
  }
]

---

Target: Sigma intracellular receptor 2 (Rattus norvegicus)
Sequence (Q5U3Y7 whole entry): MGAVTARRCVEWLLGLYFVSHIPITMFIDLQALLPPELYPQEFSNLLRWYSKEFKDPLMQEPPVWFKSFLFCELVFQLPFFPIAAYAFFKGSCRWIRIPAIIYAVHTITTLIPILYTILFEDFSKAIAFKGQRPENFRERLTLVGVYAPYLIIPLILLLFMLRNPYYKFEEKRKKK
Test: Displacement of [3H]-di-o-tolylguanidine from sigma-2 receptor in rat liver membranes incubated for 120 mins measured for 5 mins by scintillation counting method
Measured Ki accompanies every entry in the list below.
endpoint-name: Ki (nM)

[
  {
    "compound": "Oc1ccc2c(c1)CCC(NCCCc1ccccc1)CC2 (centres undefined)",
    "endpoint-name": "Ki",
    "result-units": "nM",
    "reading": 32
  },
  {
    "compound": "OCc1ccc2c(c1)CCC(NCCCc1ccccc1)CC2 (centres undefined)",
    "endpoint-name": "Ki",
    "result-units": "nM",
    "reading": 592
  },
  {
    "compound": "OCc1ccc2c(c1)CCC(NCCCCc1ccccc1)CC2 (centres undefined)",
    "endpoint-name": "Ki",
    "result-units": "nM",
    "reading": 271
  },
  {
    "compound": "Oc1ccc2c(c1)CCC(NCCCCc1ccccc1)CC2 (centres undefined)",
    "endpoint-name": "Ki",
    "result-units": "nM",
    "reading": 96
  }
]

---

Biological target: Glutamate receptor ionotropic, NMDA 2B (Homo sapiens)
Sequence (Q13224 whole entry): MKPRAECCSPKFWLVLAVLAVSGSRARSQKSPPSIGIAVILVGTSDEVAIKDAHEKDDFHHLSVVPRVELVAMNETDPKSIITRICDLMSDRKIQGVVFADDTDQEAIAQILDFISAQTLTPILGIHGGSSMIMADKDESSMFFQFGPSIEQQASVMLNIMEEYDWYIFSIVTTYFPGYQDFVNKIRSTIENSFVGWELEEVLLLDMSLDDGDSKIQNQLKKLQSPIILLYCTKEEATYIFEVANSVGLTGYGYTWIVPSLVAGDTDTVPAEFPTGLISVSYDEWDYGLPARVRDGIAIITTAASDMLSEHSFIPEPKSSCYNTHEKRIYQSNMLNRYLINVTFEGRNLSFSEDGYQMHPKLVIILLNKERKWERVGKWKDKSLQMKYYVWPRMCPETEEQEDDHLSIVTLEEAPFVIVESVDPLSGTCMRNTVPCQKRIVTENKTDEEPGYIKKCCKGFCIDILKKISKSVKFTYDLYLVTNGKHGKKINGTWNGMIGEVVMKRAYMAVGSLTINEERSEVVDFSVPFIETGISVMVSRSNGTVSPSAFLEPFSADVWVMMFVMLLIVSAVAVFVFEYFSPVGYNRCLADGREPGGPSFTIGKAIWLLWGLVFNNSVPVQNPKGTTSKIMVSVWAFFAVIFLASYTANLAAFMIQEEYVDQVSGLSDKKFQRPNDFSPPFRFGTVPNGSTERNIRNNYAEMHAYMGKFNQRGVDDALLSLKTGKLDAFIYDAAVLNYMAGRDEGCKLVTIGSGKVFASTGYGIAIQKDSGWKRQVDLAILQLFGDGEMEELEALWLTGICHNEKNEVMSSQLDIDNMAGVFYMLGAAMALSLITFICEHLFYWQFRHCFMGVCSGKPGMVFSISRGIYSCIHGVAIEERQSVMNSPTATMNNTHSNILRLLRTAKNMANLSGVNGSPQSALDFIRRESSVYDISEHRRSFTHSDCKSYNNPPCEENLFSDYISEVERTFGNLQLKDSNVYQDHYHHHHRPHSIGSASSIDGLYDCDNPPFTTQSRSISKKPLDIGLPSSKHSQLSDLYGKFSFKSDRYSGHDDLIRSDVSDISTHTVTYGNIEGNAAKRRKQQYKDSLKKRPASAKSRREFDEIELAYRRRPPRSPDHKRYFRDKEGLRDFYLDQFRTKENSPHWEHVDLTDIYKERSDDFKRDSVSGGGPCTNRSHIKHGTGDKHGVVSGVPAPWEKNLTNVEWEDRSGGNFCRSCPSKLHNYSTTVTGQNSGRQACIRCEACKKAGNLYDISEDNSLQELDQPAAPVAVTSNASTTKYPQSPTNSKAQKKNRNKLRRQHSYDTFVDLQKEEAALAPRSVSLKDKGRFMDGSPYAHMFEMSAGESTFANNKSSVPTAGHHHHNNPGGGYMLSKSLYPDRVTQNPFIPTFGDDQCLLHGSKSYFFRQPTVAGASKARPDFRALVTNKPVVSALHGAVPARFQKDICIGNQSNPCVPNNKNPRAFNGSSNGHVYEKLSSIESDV
Assay: Displacement of [3H]Ifenprodil from GluN2B receptor (unknown origin) expressed in mouse L(tk-) cell membranes incubated for 120 mins measured for 5 mins by scintillation counting method
pKi: −log10 of the molar value.
Measured pKi accompanies every entry in the list below.

[
  {
    "compound": "OCc1ccc2c(c1)CCC(NCCCc1ccccc1)CC2 (stereo not drawn)",
    "pKi": 7.00
  },
  {
    "compound": "OCc1ccc2c(c1)CCC(NCCCCc1ccccc1)CC2 (stereo not drawn)",
    "pKi": 6.73
  },
  {
    "compound": "C[C@@H](CN1CCC(Cc2ccccc2)CC1)[C@@H](O)c1ccc(O)cc1",
    "pKi": 6.76
  }
]

---

Measured inhibition accompanies every entry in the list below.
Species on record: Sus scrofa
Test: Displacement of [3H]-(+)-MK-801 from NMDA receptor PCP binding site in pig brain cortex membranes at 1 uM incubated for 120 mins measured for 5 mins by scintillation counting method relative to control
Assay type: cell membranes
endpoint-name: inhibition (%)

[
  {
    "compound": "OCc1ccc2c(c1)CCC(NCCCc1ccccc1)CC2 (centres undefined)",
    "reading": 0
  },
  {
    "compound": "OCc1ccc2c(c1)CCC(NCCCCc1ccccc1)CC2 (centres undefined)",
    "reading": 0
  },
  {
    "compound": "Oc1ccc2c(c1)CCC(NCCCc1ccccc1)CC2 (centres undefined)",
    "reading": 0
  },
  {
    "compound": "Oc1ccc2c(c1)CCC(NCCCCc1ccccc1)CC2 (centres undefined)",
    "reading": 25
  }
]
